All figures here come from patent US11618747B2.

Target: LXRβ ligand-binding domain (Homo sapiens, UniProt P55055, DUP175-175)
Construct: amino acids 156-461; NP009052; made in house; host or cells: E. coli
Sequence (P55055 with tags, fused parts or gaps DUP175-175 limits assumed): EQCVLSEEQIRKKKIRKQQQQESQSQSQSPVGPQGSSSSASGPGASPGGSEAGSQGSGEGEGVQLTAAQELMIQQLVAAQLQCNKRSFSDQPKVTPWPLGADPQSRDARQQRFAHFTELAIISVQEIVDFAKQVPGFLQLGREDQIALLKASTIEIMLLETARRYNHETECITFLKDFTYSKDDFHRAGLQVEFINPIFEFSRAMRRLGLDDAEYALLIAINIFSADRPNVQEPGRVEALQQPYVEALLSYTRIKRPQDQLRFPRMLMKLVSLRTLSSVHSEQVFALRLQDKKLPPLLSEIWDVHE
Assay: TR-FRETβ activity assay (NCoA3 coactivator peptide recruitment)
Type: biochemical
Settings: TR-FRET, 1 μM 24(S)-25-epoxycholesterol prestimulation; read-out: FRETβ (EC50 range)
MEASURE_NAME: EC50

• Cc1ccc(S(=O)(=O)n2c(-c3cccc(N4CC(C(=O)O)C4)c3)c(-c3ccoc3C#N)c3cc(F)ccc32)cc1 = 1000 to 10000 nM
• N#Cc1cscc1-c1c(-c2cccs2)n(S(=O)(=O)c2ccc(Cl)cc2)c2ccccc12 = 1000 to 10000 nM
• Cc1ccc(S(=O)(=O)n2c(-c3cccc(N4CC[C@@H](C(=O)O)C[C@H]4C)c3)c(-c3ccsc3C#N)c3cc(F)ccc32)cc1 = 100 to 1000 nM
• N#Cc1c(OCC(=O)O)cccc1-c1c(-c2cccs2)n(S(=O)(=O)c2ccc(Cl)cc2)c2ccccc12 = 1000 to 10000 nM
• N#Cc1sccc1-c1c(-c2ccccc2)n(S(=O)(=O)c2ccc(CC(=O)O)s2)c2ccccc12 = > 10000 nM
• N#Cc1ccccc1-c1c(-c2cccc(-c3ccc(C(=O)O)cc3F)c2)n(S(=O)(=O)c2ccc(C(F)F)cc2)c2ccc(F)cc12 = < 100 nM
• O=C(O)c1ccc(-c2cccc(-c3c(-c4ccccc4C4COC4)c4cnccc4n3S(=O)(=O)c3ccc(C(F)F)cc3)c2)c(Cl)c1 = 100 to 1000 nM

---

biological target: ligand-binding domain (LBD) of LXRα (Homo sapiens, UniProt Q13133); construct: expressed in transfected cells; host or cells: HEK293; test: LXR Gal4 reporter transient transfection assay (LBD-M2H Gal4α); assay type: cell-based; settings: HEK293 cells, LXRα LBD; read-out: LBD-M2H Gal4α (EC50 range)
Sequence (Q13133 155-447): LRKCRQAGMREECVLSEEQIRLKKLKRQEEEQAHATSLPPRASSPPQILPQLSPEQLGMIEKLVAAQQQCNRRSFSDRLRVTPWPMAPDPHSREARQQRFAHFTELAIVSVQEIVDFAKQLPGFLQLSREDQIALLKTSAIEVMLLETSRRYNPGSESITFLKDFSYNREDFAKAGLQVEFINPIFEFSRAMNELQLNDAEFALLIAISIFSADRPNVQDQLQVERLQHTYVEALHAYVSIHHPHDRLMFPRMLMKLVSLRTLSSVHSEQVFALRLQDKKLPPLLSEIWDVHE
Examples of compounds with documented EC50 follow.
MEASURE_NAME: EC50

* N#Cc1sccc1-c1c(-c2cccc(OCCC(=O)O)n2)n(S(=O)(=O)c2ccc(Cl)cc2)c2ccccc12 | 100 to 1000 nM
* Cc1ccc(S(=O)(=O)n2c(-c3cccc(C(C)(C)C(=O)O)c3)c(-c3ccsc3C#N)c3ccccc32)cc1 | 100 to 1000 nM
* COc1ccc(S(=O)(=O)n2c(-c3ccccc3)c(-c3ccsc3C)c3ccccc32)cc1 | 100 to 1000 nM
* N#Cc1sccc1-c1c(-c2cccs2)n(S(=O)(=O)c2ccc(Cl)cc2)c2cc(OCCCCC(=O)O)ccc12 | < 100 nM
* CS(=O)(=O)c1ccccc1-c1c(-c2cccs2)n(S(=O)(=O)c2ccc(Cl)cc2)c2ccccc12 | 100 to 1000 nM
* Cc1ccc(S(=O)(=O)n2c(-c3cc(C4CC4C(=O)O)cs3)c(-c3ccsc3C#N)c3ccccc32)cc1 (stereo not shown) | 100 to 1000 nM
* Cc1ccc(S(=O)(=O)n2c(-c3cccc(N4CC(C(=O)O)C4)c3)c(-c3ccsc3C#N)c3cc(C)ccc32)cc1 | < 100 nM
